molecular target: human GLP-1R (Homo sapiens, UniProt P43220); construct: host or cells: HEK293; assay: GLP-1R cAMP assay (Example B1a, HTRF, 30 min at room temperature); assay type: cell-based; conditions: cAMP accumulation in HEK293 expressing human GLP-1R, no BETP, 30 min room temperature (Method B1a, compounds ID 1-609), Table 1; read-out: EC50
Sequence (P43220 24-463): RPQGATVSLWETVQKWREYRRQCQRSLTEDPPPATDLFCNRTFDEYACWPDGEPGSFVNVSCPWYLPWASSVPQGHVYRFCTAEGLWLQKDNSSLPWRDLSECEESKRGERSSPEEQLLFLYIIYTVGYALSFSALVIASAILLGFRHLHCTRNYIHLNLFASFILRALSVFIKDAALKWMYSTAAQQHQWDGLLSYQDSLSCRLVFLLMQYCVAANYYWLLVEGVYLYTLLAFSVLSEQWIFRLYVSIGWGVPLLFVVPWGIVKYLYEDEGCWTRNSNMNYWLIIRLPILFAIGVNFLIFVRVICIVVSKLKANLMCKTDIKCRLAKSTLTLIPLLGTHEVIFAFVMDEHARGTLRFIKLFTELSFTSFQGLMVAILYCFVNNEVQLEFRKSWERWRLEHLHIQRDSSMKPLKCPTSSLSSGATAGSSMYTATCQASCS
// reported pEC50 per item
Lab note: report pEC50 as minus log10 of the concentration in molar units, number only.

These solved cases illustrate the format of a correct answer.
{"Smiles Input": "Cc1cc(-n2nc3c(c2-n2ccn(-c4ccc5cnncc5c4)c2=O)[C@@H]2CC[C@H](C3)N2C(=O)c2cc3cc([C@H]4CCOC(C)(C)C4)ccc3n2[C@@]2(c3noc(=O)[nH]3)C[C@@H]2C)cc(C)c1F", "Data Value": 6.42}
{"Smiles Input": "COc1cc2c(F)c(-n3ccn(-c4c5c(nn4-c4cc(C)c(F)c(C)c4)C[C@H]4CC[C@@H]5N4C(=O)c4cc5cc([C@H]6CCOC(C)(C)C6)ccc5n4[C@@]4(c5noc(=O)[nH]5)C[C@@H]4C)c3=O)ccn2n1", "Data Value": 6.90}

Below: the item to evaluate.
The reported pEC50 of the compound `Cc1cc(-n2nc3c(c2-c2ncn(-c4ccc5c(cnn5C)c4F)c2C)[C@H](C)N(C(=O)c2cc4cc([C@H]5CCOC(C)(C)C5)ccc4n2[C@@]2(c4noc(=O)[nH]4)C[C@@H]2C)CC3)cc(C)c1F` was 6.23

====

target: human GLP-1R (Homo sapiens, UniProt P43220); construct: host or cells: HEK293; test: GLP-1R cAMP assay (Example B1a, HTRF, 30 min at room temperature); type: cell-based; settings: cAMP accumulation in HEK293 expressing human GLP-1R, no BETP, 30 min room temperature (Method B1a, compounds ID 1-609), Table 1; read-out: EC50
Readout Kind: pEC50
Lab note: report pEC50 as minus log10 of the concentration in molar units, number only.

The reported pEC50 value, human GLP-1R (Homo sapiens, UniProt P43220), for `Cc1cc(-n2nc3c(c2-n2ccn(-c4ccc5c(cnn5C)c4C)c2=O)[C@@H]2CC[C@H](C3)N2C(=O)c2cc3cc([C@H]4CCOC(C)(C)C4)ccc3n2[C@@]2(c3noc(=O)[nH]3)C[C@@H]2C)cc(C)c1F` reads 6.69

====

experiment: Pharmacokinetic analysis in male SD rats; assay type: in vivo; conditions: Sprague-Dawley (SD), rat, plasma, 5.0 mg/kg po
Readout Kind: Tmax (h)
Please state the figure in h; there is no need to write the unit.

{"Compound": "Cc1cc(-n2nc3c(c2-n2ccn(-c4ccc5c(cnn5C)c4F)c2=O)[C@@H]2CC[C@H](C3)N2C(=O)c2cc3cc([C@H]4CCOC5(CC5)C4)ccc3n2[C@@]2(c3noc(=O)[nH]3)C[C@@H]2C)cc(C)c1F [Compound 214]", "Tmax, h": 2.67}
{"Compound": "Cc1cc(-n2nc3c(c2-n2ccn(-c4ccc5c(cnn5C)c4F)c2=O)[C@H](C)N(C(=O)c2cc4cc([C@H]5CCOC(C)(C)C5)ccc4n2[C@@]2(c4noc(=O)[nH]4)C[C@@H]2C)CC3)cc(C)c1F [Orforglipron, orforglipron, reference compound]", "Tmax, h": 4}
{"Compound": "Cc1cc(-n2nc3c(c2-n2ccn(-c4ccc5c(cnn5C)c4F)c2=O)[C@@H]2COC[C@H](C3)N2C(=O)c2cc3cc([C@H]4CCOC(C)(C)C4)ccc3n2[C@@]2(c3noc(=O)[nH]3)C[C@@H]2C)cc(C)c1F [Compound 121]", "Tmax, h": 3.33}

The reported Tmax of the compound Cc1cc(-n2nc3c(c2-n2ccn(-c4ccc5c(cnn5C)c4F)c2=O)[C@@H]2CC[C@H](C3)N2C(=O)c2cc3cc([C@H]4CCOC(C)(C)C4)ccc3n2[C@@]2(c3noc(=O)[nH]3)C[C@@H]2C)cc(C)c1F [Compound 36] was 3.33

====

test: Pharmacokinetic analysis in male SD rats; type: in vivo; conditions: 5.0 mg/kg po vs 1.0 mg/kg iv
Readout Kind: Oral F (%)
Please state the figure in %; there is no need to write the unit.

{"Compound": "Cc1cc(-n2nc3c(c2-n2ccn(-c4ccc5c(cnn5C)c4F)c2=O)[C@@H]2CC[C@H](C3)N2C(=O)c2cc3cc([C@H]4CCOC(C)(C)C4)ccc3n2[C@@]2(c3noc(=O)[nH]3)C[C@@H]2C)cc(C)c1F", "Oral F [%]": 29.6}

The reported Oral F of the compound Cc1cc(-n2nc3c(c2-n2ccn(-c4ccc5c(cnn5C)c4F)c2=O)[C@H](C)N(C(=O)c2cc4cc([C@H]5CCOC(C)(C)C5)ccc4n2[C@@]2(c4noc(=O)[nH]4)C[C@@H]2C)CC3)cc(C)c1F [Orforglipron, orforglipron, reference compound] was 11.2

The reported Oral F of the compound `Cc1cc(-n2nc3c(c2-n2ccn(-c4ccc5c(cnn5C)c4F)c2=O)[C@@H]2CC[C@H](C3)N2C(=O)c2cc3cc([C@H]4CCOC5(CC5)C4)ccc3n2[C@@]2(c3noc(=O)[nH]3)C[C@@H]2C)cc(C)c1F` was 32.6

The reported Oral F of the compound `Cc1cc(-n2nc3c(c2-n2ccn(-c4ccc5c(cnn5C)c4F)c2=O)[C@@H]2COC[C@H](C3)N2C(=O)c2cc3cc([C@H]4CCOC(C)(C)C4)ccc3n2[C@@]2(c3noc(=O)[nH]3)C[C@@H]2C)cc(C)c1F` was 54.7

====

test: in vivo; settings: male, cynomolgus monkey, po, 0.36 mg/kg
// reported Tmax per item
Please state the figure in h; there is no need to write the unit.

These solved cases illustrate the format of a correct answer.
{"Smiles Input": "Cc1cc(-n2nc3c(c2-n2ccn(-c4ccc5c(cnn5C)c4F)c2=O)[C@@H]2CC[C@H](C3)N2C(=O)c2cc3cc([C@H]4CCOC5(CC5)C4)ccc3n2[C@@]2(c3noc(=O)[nH]3)C[C@@H]2C)cc(C)c1F", "Tmax / h": 2}
{"Smiles Input": "Cc1cc(-n2nc3c(c2-n2ccn(-c4ccc5c(cnn5C)c4F)c2=O)[C@@H]2COC[C@H](C3)N2C(=O)c2cc3cc([C@H]4CCOC(C)(C)C4)ccc3n2[C@@]2(c3noc(=O)[nH]3)C[C@@H]2C)cc(C)c1F", "Tmax / h": 2}

Below: the item to evaluate.
The reported Tmax of the compound `Cc1cc(-n2nc3c(c2-n2ccn(-c4ccc5c(cnn5C)c4F)c2=O)[C@@H]2CC[C@H](C3)N2C(=O)c2cc3cc([C@H]4CCOC(C)(C)C4)ccc3n2[C@@]2(c3noc(=O)[nH]3)C[C@@H]2C)cc(C)c1F` was 2

====

assay: Pharmacokinetic analysis in cynomolgus monkeys; conditions: male, cynomolgus monkey, plasma, iv, 0.12 mg/kg
Readout Kind: AUC(0-inf) (ng·h/mL)
Please state the figure in ng·h/mL; there is no need to write the unit.

The reported AUC(0-inf) of the compound Cc1cc(-n2nc3c(c2-n2ccn(-c4ccc5c(cnn5C)c4F)c2=O)[C@H](C)N(C(=O)c2cc4cc([C@H]5CCOC(C)(C)C5)ccc4n2[C@@]2(c4noc(=O)[nH]4)C[C@@H]2C)CC3)cc(C)c1F [Orforglipron, orforglipron, reference compound] was 517

====

// reported EC50 per item
target: human GLP-1R (Homo sapiens); construct: host or cells: HEK293; test: GLP-1R cAMP assay (Example B1a, HTRF, 30 min at room temperature); format: cell-based; conditions: cAMP accumulation in HEK293 expressing human GLP-1R, no BETP, 30 min room temperature (Method B1a, compounds ID 1-609), Table 1; read-out: EC50
Please state the figure in nM; there is no need to write the unit.

{"Smiles Input": "Cc1cc(-n2nc3c(c2-n2ccn(-c4ccc5c(cnn5C)c4F)c2=O)[C@@H]2CC[C@H]([C@H]3F)N2C(=O)c2cc3cc([C@H]4CCOC(C)(C)C4)ccc3n2[C@@]2(c3noc(=O)[nH]3)C[C@@H]2C)cc(C)c1F", "Measured On": "human GLP-1R (Homo sapiens)", "Result Units": "nM", "Data Value": 226}

Below: the item to evaluate.
The reported EC50 of the compound `Cc1cc(-n2nc3c(c2-n2ccn(-c4ccc5c(cnn5C)c4F)c2=O)[C@@H]2COC[C@H](C3)N2C(=O)c2cc3cc([C@H]4CCOC(C)(C)C4)ccc3n2[C@@]2(c3noc(=O)[nH]3)C[C@@H]2C)cc(C)c1F` was 82

====

biological target: human GLP-1R (Homo sapiens, UniProt P43220); construct: host or cells: HEK293; test: GLP-1R cAMP assay (Example B1b, HTRF, 30 min at 37°); format: cell-based; settings: cAMP accumulation in HEK293 expressing human GLP-1R, no BETP, 30 min at 37° (Method B1b), Table 1
Readout Kind: EC50 (µM)
Please state the figure in µM; there is no need to write the unit.

These solved cases illustrate the format of a correct answer.
{"Compound": "Cc1cc(-n2nc3c(c2-n2ccn(-c4ccc5c(cnn5C)c4F)c2=O)[C@@H]2CCC[C@H](C3)N2C(=O)c2cc3cc(C4CCOC(C)(C)C4)cc(F)c3n2[C@@]2(c3noc(=O)[nH]3)C[C@@H]2C)cc(C)c1F (stereo partly shown)", "EC50 (µM)": 0.0142}
{"Compound": "Cc1cc(-n2nc3c(c2-n2ccn(-c4ccc5ccncc5c4F)c2=O)[C@@H]2CCC[C@H](C3)N2C(=O)c2cc3cc([C@H]4CCOC5(CC5)C4)ccc3n2[C@@]2(c3noc(=O)[nH]3)C[C@@H]2C)cc(C)c1F", "EC50 (µM)": 0.0008}
{"Compound": "Cc1cc(-n2nc3c(c2-n2ccn(-c4ccc5c(cnn5C5CC5)c4F)c2=O)[C@@H]2COC[C@H](C3)N2C(=O)c2cc3cc(C4CCOCC4)ccc3n2[C@@]2(c3noc(=O)[nH]3)C[C@@H]2C)cc(C)c1F", "EC50 (µM)": 0.004}
{"Compound": "Cc1cc(-n2nc3c(c2-n2ccn(-c4ccc5c(cnn5C)c4F)c2=O)[C@@H]2CCC[C@H](C3)N2C(=O)c2cc3cc([C@H]4CCOC(C)(C)C4)cc(F)c3n2[C@@]2(c3noc(=O)[nH]3)C[C@@H]2C)cc(C)c1F", "EC50 (µM)": 0.0025}
{"Compound": "Cc1cc(-n2nc3c(c2-n2ccn(-c4ccc5c(cnn5C)c4F)c2=O)[C@@H]2CC[C@H](C3)N2C(=O)c2cc3cc(C4CCOC(C)(C)C4)c(F)cc3n2[C@@]2(c3noc(=O)[nH]3)C[C@@H]2C)cc(C)c1F (stereo partly shown)", "EC50 (µM)": 0.005}

Below: the item to evaluate.
The reported EC50 of the compound Cc1cc(-n2nc3c(c2-n2ccn(-c4ccc5c(cnn5C)c4F)c2=O)[C@@H]2CC[C@H](C3)N2C(=O)c2cc3cc(C4CCOC(C)(C)C4)cc(F)c3n2[C@@]2(c3noc(=O)[nH]3)C[C@@H]2C)cc(C)c1F (stereo partly shown) was 0.0296
